meta.source: patent US20240109930A1

The next entries give measured IC50 for human Gal-3 (hGal-3) (Homo sapiens (Human), UniProt P17931).
Parameter: IC50 (nM)

1. CO[C@@H]1[C@@H](n2cc(-c3ccc(Cl)c(F)c3F)nn2)[C@@H](O)[C@@H](CO)O[C@@H]1Cn1cc([C@H]2C[C@@H](N)C2)nn1 [Ex 2.2.87.]
2. CO[C@@H]1[C@@H](n2cc(-c3ccc(C)c(F)c3F)nn2)[C@@H](O)[C@@H](CO)O[C@@H]1Cc1cn(C2(C)CC2)nn1 [Ex 1.1.23.]
3. CO[C@@H]1[C@@H](n2cc(-c3ccc(Cl)c(F)c3F)nn2)[C@@H](O)[C@@H](CO)O[C@@H]1Cc1cn(C23CCC(O)(CC2)CC3)nn1 [Ex 2.1.8.]
Request: // ascending sort on IC50 for the entries above When ranking, write the labels in the order the request describes.
Response: 2, 3, 1
(2: 20 nM, 3: 30 nM, 1: 120 nM)

====

- Experimental System: human Gal-1 (hGal-1) (Homo sapiens, UniProt P09382, C131S/C17S/C43S/C61S/C89S)
- Assay Name: Competitive binding assay: biotinylated hGal-1 binding to microplate-adsorbed asialofetuin (ASF)
- Condition Summary: IC50 values from several measurements given as geomean
Parameter: IC50 (nM)

CO[C@@H]1[C@@H](n2cc(-c3ccc(Cl)c(F)c3F)nn2)[C@@H](O)[C@@H](CO)O[C@@H]1Cc1cn(C2(C(F)F)COC2)nn1 [Ex 2.1.53.] :: 420

A. CO[C@@H]1[C@@H](n2cc(-c3ccc(Cl)c(F)c3F)nn2)[C@@H](O)[C@@H](CO)O[C@@H]1Cc1cn(C23COC(C2)C3)nn1 [Ex 2.1.44.]
B. CO[C@@H]1[C@@H](n2cc(-c3ccc(Cl)c(F)c3F)nn2)[C@@H](O)[C@@H](CO)O[C@@H]1Cc1cn([C@]2(C)CCO[C@@H]2C)nn1 (single isomer, unassigned) [Example 2.1.68.B]
Request: Determine, for A and B , which has the greater value of IC50. Refer to your chosen entry by its label in the reply.
Response: A

1. CO[C@@H]1[C@@H](n2cc(-c3ccc(Cl)c(F)c3F)nn2)[C@@H](O)[C@@H](CO)O[C@@H]1Cc1cn([C@@H]2CCC[C@@H]2F)nn1 [Example 2.1.79.A]
2. CO[C@@H]1[C@@H](n2cc(-c3ccc(Cl)c(F)c3F)nn2)[C@@H](O)[C@@H](CO)O[C@@H]1Cc1cn(C23CCC(N)(CC2)CC3)nn1 [Ex 2.2.39.]
Request: // task: argmin of IC50 over [ 1 , 2 ] Refer to your chosen entry by its label in the reply.
Response: 1
(1: 1510 nM, 2: 6070 nM)

====

- Experimental System: human Gal-1 (hGal-1) (Homo sapiens, UniProt P09382, C131S/C17S/C43S/C61S/C89S)
- Assay Name: Competitive binding assay: biotinylated hGal-1 binding to microplate-adsorbed asialofetuin (ASF)
- Condition Summary: IC50 values from several measurements given as geomean
Parameter: IC50 (nM)

Below, each entry is followed by its recorded IC50 result.
CO[C@@H]1[C@@H](n2cc(-c3ccc(F)c(F)c3F)nn2)[C@@H](O)[C@@H](CO)O[C@@H]1Cc1cn(C2(CF)COC2)nn1 :: 240
CO[C@@H]1[C@@H](n2cc(-c3ccc(Cl)c(F)c3F)nn2)[C@@H](O)[C@@H](CO)O[C@@H]1Cc1cn(C2CC2C(C)C)nn1 (stereo partly drawn) :: 11500
CO[C@@H]1[C@@H](n2cc(-c3ccc(Cl)c(F)c3F)nn2)[C@@H](O)[C@@H](CO)O[C@@H]1Cc1cn(C2(CF)CCC2)nn1 :: 1630
CO[C@@H]1[C@@H](n2cc(-c3ccc(Br)c(F)c3F)nn2)[C@@H](O)[C@@H](CO)O[C@@H]1Cc1cn([C@@H]2CC[C@@H]2F)nn1 (relative stereo) :: 2450

P. CO[C@@H]1[C@@H](n2cc(-c3ccc(F)c(F)c3F)nn2)[C@@H](O)[C@@H](CO)O[C@@H]1Cc1cn(C23CCOC(C)(C2)C3)nn1
Q. CO[C@@H]1[C@@H](n2cc(-c3ccc(F)c(F)c3F)nn2)[C@@H](O)[C@@H](CO)O[C@@H]1Cc1cn(C2(C(F)(F)F)COC2)nn1
Request: Determine, for P and Q , which has the greater value of IC50. Refer to your chosen entry by its label in the reply.
Response: P

====

- Experimental System: human Gal-1 (hGal-1) (Homo sapiens, UniProt P09382, C131S/C17S/C43S/C61S/C89S)
- Assay Name: Competitive binding assay: biotinylated hGal-1 binding to microplate-adsorbed asialofetuin (ASF)
- Condition Summary: IC50 values from several measurements given as geomean
Parameter: IC50 (nM)

Below, each entry is followed by its recorded IC50 result.
CO[C@@H]1[C@@H](n2cc(-c3ccc(Cl)c(F)c3F)nn2)[C@@H](O)[C@@H](CO)O[C@@H]1Cc1cn(C2CCOCC2(F)F)nn1 (single isomer, unassigned) [Example 2.1.89.A] :: 100
CO[C@@H]1[C@@H](n2cc(-c3ccc(F)c(F)c3F)nn2)[C@@H](O)[C@@H](CO)O[C@@H]1Cn1cc(C2(C)COC2)nn1 :: 580
CO[C@@H]1[C@@H](n2cc(-c3ccc(F)c(F)c3F)nn2)[C@@H](O)[C@@H](CO)O[C@@H]1Cc1cn(C23CC(OC)(C2)C3)nn1 :: 760

A. CO[C@@H]1[C@@H](n2cc(-c3ccc(Br)c(F)c3F)nn2)[C@@H](O)[C@@H](CO)O[C@@H]1Cc1cn(C23CC(C(F)(F)F)(C2)C3)nn1
B. COCC1(n2cc(C[C@H]3O[C@H](CO)[C@H](O)[C@H](n4cc(-c5ccc(Cl)c(F)c5F)nn4)[C@H]3OC)nn2)CC1
C. CO[C@@H]1[C@@H](n2cc(-c3ccc(F)c(F)c3F)nn2)[C@@H](O)[C@@H](CO)O[C@@H]1Cc1cn(C2(C)CC(F)(F)C2)nn1
Request: Order the items by recorded IC50; the first position goes to the largest value. When ranking, write the labels in the order the request describes.
Response: A, B, C
(A: 28400 nM, B: 2950 nM, C: 460 nM)

a. CO[C@@H]1[C@@H](n2cc(-c3ccc(C)c(F)c3F)nn2)[C@@H](O)[C@@H](CO)O[C@@H]1Cc1cn(C2[C@H]3CCC[C@@H]23)nn1 (some centres unmarked)
b. COCC1(n2cc(C[C@H]3O[C@H](CO)[C@H](O)[C@H](n4cc(-c5ccc(Br)c(F)c5F)nn4)[C@H]3OC)nn2)CCC1
c. CO[C@@H]1[C@@H](n2cc(-c3ccc(F)c(F)c3F)nn2)[C@@H](O)[C@@H](CO)O[C@@H]1Cc1cn([C@]2(C)C[C@H](O)C2)nn1
d. CO[C@@H]1[C@@H](n2cc(-c3ccc(Cl)c(F)c3F)nn2)[C@@H](O)[C@@H](CO)O[C@@H]1Cc1cn([C@]2(C)C[C@H](O)C2)nn1
e. CO[C@@H]1[C@@H](n2cc(-c3ccc(C)c(F)c3F)nn2)[C@@H](O)[C@@H](CO)O[C@@H]1Cn1cc(C2(O)CC2)nn1
Request: Put the molecules in ascending order of IC50. When ranking, write the labels in the order the request describes.
Response: c, d, b, a, e

A. CO[C@@H]1[C@@H](n2cc(-c3ccc(Br)c(F)c3F)nn2)[C@@H](O)[C@@H](CO)O[C@@H]1Cc1cn(C2CCC2(F)F)nn1 (some centres unmarked)
B. CO[C@@H]1[C@@H](n2cc(-c3ccc(F)c(F)c3F)nn2)[C@@H](O)[C@@H](CO)O[C@@H]1Cc1cn(C2(CO)CC(F)(F)C2)nn1
C. CO[C@@H]1[C@@H](n2cc(-c3ccc(F)c(F)c3F)nn2)[C@@H](O)[C@@H](CO)O[C@@H]1Cc1cn(C2(C(F)(F)F)CC2)nn1
D. CO[C@@H]1[C@@H](n2cc(-c3ccc(C)c(F)c3F)nn2)[C@@H](O)[C@@H](CO)O[C@@H]1Cc1cn(C2CC3(CC3)C2)nn1
E. CO[C@@H]1[C@@H](n2cc(-c3ccc(Br)c(F)c3F)nn2)[C@@H](O)[C@@H](CO)O[C@@H]1Cn1cc(C2(O)CC2)nn1
Request: Order the items by recorded IC50; the first position goes to the largest value. When ranking, write the labels in the order the request describes.
Response: D, E, A, B, C
(D: 17100 nM, E: 5910 nM, A: 3190 nM, B: 1390 nM, C: 280 nM)

1. CO[C@@H]1[C@@H](n2cc(-c3ccc(C)c(F)c3F)nn2)[C@@H](O)[C@@H](CO)O[C@@H]1Cn1cc(C2(CO)CC2)nn1
2. CCC(C)(C)n1cc(C[C@H]2O[C@H](CO)[C@H](O)[C@H](n3cc(-c4ccc(Cl)c(F)c4F)nn3)[C@H]2OC)nn1
Request: Determine, for 1 and 2 , which has the greater value of IC50. Refer to your chosen entry by its label in the reply.
Response: 1
